TARGET_UNDER_TEST: HCMV polymerase (Human cytomegalovirus)
Construct: made in house; host or cells: SF-9 insect cells infected with recombinant baculovirus
Sequence (P08546 whole entry): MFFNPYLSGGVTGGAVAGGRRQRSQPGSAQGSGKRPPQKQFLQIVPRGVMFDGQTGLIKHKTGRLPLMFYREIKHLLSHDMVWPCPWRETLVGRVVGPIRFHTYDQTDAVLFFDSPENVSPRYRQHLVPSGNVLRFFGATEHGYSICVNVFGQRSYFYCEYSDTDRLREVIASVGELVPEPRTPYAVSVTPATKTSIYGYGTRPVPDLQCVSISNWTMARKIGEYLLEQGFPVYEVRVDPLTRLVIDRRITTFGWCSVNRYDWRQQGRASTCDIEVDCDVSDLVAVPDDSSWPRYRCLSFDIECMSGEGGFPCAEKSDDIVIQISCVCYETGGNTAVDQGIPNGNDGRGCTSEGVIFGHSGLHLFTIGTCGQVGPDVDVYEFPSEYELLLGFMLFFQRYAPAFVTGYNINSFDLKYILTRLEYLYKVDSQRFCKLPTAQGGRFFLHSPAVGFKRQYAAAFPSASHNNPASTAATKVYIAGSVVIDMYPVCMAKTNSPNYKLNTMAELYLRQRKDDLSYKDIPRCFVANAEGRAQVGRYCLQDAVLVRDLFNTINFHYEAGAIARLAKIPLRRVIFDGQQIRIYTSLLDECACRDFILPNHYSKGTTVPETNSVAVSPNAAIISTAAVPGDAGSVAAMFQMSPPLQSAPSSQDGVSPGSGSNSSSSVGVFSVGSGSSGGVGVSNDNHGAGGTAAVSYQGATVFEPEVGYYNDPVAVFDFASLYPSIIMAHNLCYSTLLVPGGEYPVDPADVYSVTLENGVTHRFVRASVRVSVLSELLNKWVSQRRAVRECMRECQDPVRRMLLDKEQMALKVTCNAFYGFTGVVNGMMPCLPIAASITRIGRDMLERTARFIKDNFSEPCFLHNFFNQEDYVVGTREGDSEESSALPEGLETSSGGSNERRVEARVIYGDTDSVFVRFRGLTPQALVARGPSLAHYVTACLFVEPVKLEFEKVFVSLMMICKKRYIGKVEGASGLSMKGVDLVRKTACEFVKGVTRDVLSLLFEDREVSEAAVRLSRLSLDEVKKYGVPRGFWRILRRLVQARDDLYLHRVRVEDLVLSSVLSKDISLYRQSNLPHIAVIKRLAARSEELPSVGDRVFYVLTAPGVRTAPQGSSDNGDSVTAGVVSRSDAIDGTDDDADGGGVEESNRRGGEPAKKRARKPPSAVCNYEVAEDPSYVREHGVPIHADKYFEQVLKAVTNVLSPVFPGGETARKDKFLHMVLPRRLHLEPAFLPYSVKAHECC
ASSAY_PROCEDURE: HCMV polymerase assay (scintillation proximity assay)
Format: biochemical
STATED_CONDITIONS: percentage of inhibition at 25 μM concentration in CMV polymerase assay
PROPERTY_LABEL: inhibition at 25 µM (%)

// solved cases for inhibition at 25 µM follow
CCCCC(CC)CNc1nnc(NC(=O)c2c(Cl)cccc2Cl)s1 (stereo not drawn) = 37
Cc1ccc(C(=O)Nc2nnc(NCc3cccc4ccccc34)s2)cc1 = 20.7
N#Cc1ccc(C(=O)Nc2nnc(NCc3ccc(Cl)c(Cl)c3)s2)cc1 = 56.2
CC(C)(C)OC(=O)CCNc1nnc(NC(=O)c2ccc(C(F)(F)F)cc2)s1 = 25
O=C(/C=C/c1ccccc1)Nc1nnc(NCCCn2ccnc2)s1 = 57

[P] O=C(Nc1nnc(NCCc2c[nH]c3ccccc23)s1)c1cc(F)cc(F)c1
[Q] O=C(/C=C/c1ccccc1)Nc1nnc(NCc2ccc3c(c2)OCO3)s1
[R] CCCCCCCC/C=C/CCCCCCCC(=O)Nc1nnc(NCCCNC2CCCCC2)s1
[ask] Falling order of inhibition at 25 µM, please. In plain terms: list the labels in the order you were asked to.
[reply] R, Q, P
(R: 100%, Q: 49%, P: 20.7%)

[A] CC(C)c1cc(C(C)C)c(C(=O)Nc2nnc(NCCC(=O)OC(C)(C)C)s2)c(C(C)C)c1
[B] O=C(Nc1nnc(NCCCCc2ccccc2)s1)c1c(Cl)cccc1Cl
[ask] Return label of the item with the larger inhibition at 25 µM. Candidates: A , B . Record your answer as the label of the chosen record.
[reply] B

The origin of these recorded values is patent US6150385A.
